Tested on: P23H opsin
assay.summary: Rhodopsin purification and regeneration (P23H cells treated with compound, regenerated with 9-cis-retinal, 480-500 nm absorbance)
condition.description: P23H cells, compound concentration 10 μM, 48 hours, regeneration with 9-cis-retinal (20 μM)
Short version: Fold Increase Over Control (480-500 nm absorbance as fold increase over the DMSO control) at least 2 fold is Satisfied, less is Not satisfied.

Query: Record CC1(C)CCCC2CC(=NO)CC21 (stereo not drawn) [Compound 55] ; criterion: Fold Increase Over Control (480-500 nm absorbance as fold increase over the DMSO control) no lower than 2 fold. Met?
Reply: Satisfied

Query: Record CC1(C)CCC[C@@]2(C)C(=O)CC[C@@H]12 (racemic) [Compound 5] ; criterion: Fold Increase Over Control (480-500 nm absorbance as fold increase over the DMSO control) no lower than 2 fold. Met?
Reply: Not satisfied

Query: Record CC(C)C1=CC(=NO)[C@H]2C(C)(C)CCC[C@@]12C (racemic) [Compound 45] ; criterion: Fold Increase Over Control (480-500 nm absorbance as fold increase over the DMSO control) no lower than 2 fold. Met?
Reply: Satisfied

Query: Record CC1(C)CCC[C@@]2(C)C(c3ccccc3)=CC(=O)[C@@H]12 (racemic) [Compound 28] ; criterion: Fold Increase Over Control (480-500 nm absorbance as fold increase over the DMSO control) no lower than 2 fold. Met?
Reply: Not satisfied

Query: Record CC1(C)CCC[C@@]2(C)C=C[C@@H](O)[C@@H]12 (racemic) [Compound 37] ; criterion: Fold Increase Over Control (480-500 nm absorbance as fold increase over the DMSO control) no lower than 2 fold. Met?
Reply: Not satisfied

Query: Record CC1(C)CCC[C@@]2(C)C(=NO)CC[C@@H]12 (racemic) [Compound 33] ; criterion: Fold Increase Over Control (480-500 nm absorbance as fold increase over the DMSO control) no lower than 2 fold. Met?
Reply: Not satisfied

Query: Record CC(C)[C@@H]1CC(=O)[C@H]2C(C)(C)CCC[C@@]12C (racemic) [Compound 46] ; criterion: Fold Increase Over Control (480-500 nm absorbance as fold increase over the DMSO control) no lower than 2 fold. Met?
Reply: Not satisfied

Query: Record CON=C1C=C(C(C)C)[C@]2(C)CCCC(C)(C)[C@H]12 (racemic) [Compound 51] ; criterion: Fold Increase Over Control (480-500 nm absorbance as fold increase over the DMSO control) no lower than 2 fold. Met?
Reply: Not satisfied

Query: Record CC1(C)CCC[C@@]2(C)C(C3CC3)=CC(=O)[C@@H]12 (racemic) [Compound 44] ; criterion: Fold Increase Over Control (480-500 nm absorbance as fold increase over the DMSO control) no lower than 2 fold. Met?
Reply: Satisfied
